Target: purified murine COX-2 (Mus musculus)
Sequence (Q05769 18-604): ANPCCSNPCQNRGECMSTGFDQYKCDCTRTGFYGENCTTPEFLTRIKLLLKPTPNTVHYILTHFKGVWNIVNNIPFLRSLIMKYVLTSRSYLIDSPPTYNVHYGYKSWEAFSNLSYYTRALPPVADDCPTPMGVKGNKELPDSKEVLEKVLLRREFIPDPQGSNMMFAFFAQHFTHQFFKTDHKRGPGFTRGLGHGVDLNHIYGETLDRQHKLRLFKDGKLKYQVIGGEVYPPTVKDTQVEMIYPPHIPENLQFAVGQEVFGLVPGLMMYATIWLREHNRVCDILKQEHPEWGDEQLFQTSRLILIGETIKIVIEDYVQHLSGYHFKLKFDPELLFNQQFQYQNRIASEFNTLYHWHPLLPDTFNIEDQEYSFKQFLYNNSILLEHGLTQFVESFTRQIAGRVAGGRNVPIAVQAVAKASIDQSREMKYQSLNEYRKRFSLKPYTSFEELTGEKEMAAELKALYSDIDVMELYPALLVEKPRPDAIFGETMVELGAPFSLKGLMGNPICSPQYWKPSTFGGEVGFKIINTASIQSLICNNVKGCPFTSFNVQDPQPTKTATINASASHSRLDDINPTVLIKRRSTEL
Experiment: Inhibition of mCOX-2 dependent oxygenation of 2-AG and AA by profens in vitro
Type: biochemical
Design: made in house; host or cells: insect cells
Conditions: achiral profens; at 10 μM inhibitor; AA 5 μM; read-out: AA % Inhibition
Description: Desired concentrations of inhibitor in DMSO or blank (DMSO) were incubated with mCOX-2 (40 nM) for 3 minutes in 100 mM Tris-HCl with 0.5 mM phenol, pH 8.0 at 37° C. After pre-incubation of enzyme and inhibitor, 5 μM of AA or 2-AG was added at 37° C. […] Analyte peak areas were normalized to the appropriate internal standard to determine the amount of product formation, and inhibition was determined by normalization to a DMSO control.
Metric Name: inhibition at 10 µM (%)
Write down the numeric answer in % and omit the unit.

input: // lookup inhibition at 10 µM | system=purified murine COX-2 (Mus musculus) | key= CC(C)Cc1ccc(CC(=O)O)cc1
output: 14

input: // map CC(C)(C(=O)O)c1cccc(Oc2ccccc2)c1 to recorded inhibition at 10 µM (system: purified murine COX-2 (Mus musculus))
output: 17

input: Quick check: inhibition at 10 µM on purified murine COX-2 (Mus musculus), item COc1ccc2cc(C(C)(C)C(=O)O)ccc2c1 ?
output: 7

input: Quick check: inhibition at 10 µM on purified murine COX-2 (Mus musculus), item CC(C)Cc1ccc(C2(C(=O)O)CC2)cc1 ?
output: 10

input: Test system purified murine COX-2 (Mus musculus); read-out inhibition at 10 µM; what value for O=C(O)Cc1cccc(C(=O)c2ccccc2)c1 ?
output: 10

input: // map CC(C)(C(=O)O)c1ccc(-c2ccccc2)c(F)c1 to recorded inhibition at 10 µM (system: purified murine COX-2 (Mus musculus))
output: 5

====

Biological target: COX-2 (Mus musculus)
Assay: Inhibition of COX-2 oxygenation by acetaminophen and its metabolites
Format: biochemical
Metric Name: IC50 (µM)
Enter your answer as a number in µM; do not include the unit.

input: Reported IC50 for Nc1ccc(O)cc1 [4-aminophenol] : what is it?
output: 71

====

Biological target: purified murine COX-2 (Mus musculus, UniProt Q05769)
Sequence (Q05769 18-604): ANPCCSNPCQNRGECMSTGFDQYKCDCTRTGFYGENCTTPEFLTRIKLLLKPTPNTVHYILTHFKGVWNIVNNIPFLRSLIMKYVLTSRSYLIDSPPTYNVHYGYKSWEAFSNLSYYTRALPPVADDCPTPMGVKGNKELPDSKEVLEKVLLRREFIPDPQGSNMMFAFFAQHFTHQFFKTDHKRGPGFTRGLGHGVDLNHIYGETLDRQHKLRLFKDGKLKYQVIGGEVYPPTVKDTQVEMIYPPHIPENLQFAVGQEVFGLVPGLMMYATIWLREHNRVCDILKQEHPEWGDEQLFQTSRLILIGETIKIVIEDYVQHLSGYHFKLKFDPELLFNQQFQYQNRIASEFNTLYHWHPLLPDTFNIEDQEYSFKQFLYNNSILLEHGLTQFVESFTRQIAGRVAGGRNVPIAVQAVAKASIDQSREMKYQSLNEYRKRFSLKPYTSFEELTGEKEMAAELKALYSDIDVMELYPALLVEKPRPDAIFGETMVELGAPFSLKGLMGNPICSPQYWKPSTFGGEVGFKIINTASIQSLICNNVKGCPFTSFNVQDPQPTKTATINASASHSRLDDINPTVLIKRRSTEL
Assay: Inhibition of mCOX-2-dependent oxygenation of 2-AG and AA by lumiracoxib and derivatives in vitro
Type: biochemical
Parameters: made in house; host or cells: insect cells; dose or concentration left out as unconfirmed
Conditions: inhibitor incubated with enzyme for 15 min before addition of substrate; read-out: AA IC50
Metric Name: inhibition

input: Fill in the blank: the reported inhibition of Cc1ccc(Nc2ccccc2)c(CC(=O)O)c1 [Compound 104] is ____.
output: < 50%

input: Query: inhibition; subject: Cc1ccc(Nc2ccccc2Cl)c(CC(=O)O)c1 [Compound 102]
output: < 50%

input: Look at this compound and give its reported inhibition. Cc1cccc(F)c1Nc1ccccc1CC(=O)O [Compound 115]
output: < 50%

input: Query (compound): O=C(O)Cc1ccccc1Nc1ccccc1F [Compound 111] ; field requested: inhibition
output: < 50%

input: // query inhibition value for entry Cc1ccc(Nc2c(Cl)cc(Cl)cc2Cl)c(CC(=O)O)c1 [Compound 108]
output: < 50%

input: # input compound: Cc1ccc(Nc2c(F)cccc2F)c(CC(=O)O)c1 [Compound 106] ; wanted: its inhibition
output: < 50%

input: State the recorded inhibition for this entry: Cc1ccc(Nc2c(C)cccc2F)c(CC(=O)O)c1 [Compound 107]
output: < 50%

input: Which inhibition reading was recorded for the compound Cc1ccc(Nc2ccccc2F)c(CC(=O)O)c1 [Compound 103] ?
output: < 50%

====

Molecular target: purified murine COX-2 (Mus musculus)
Assay: Inhibition of mCOX-2 dependent oxygenation of 2-AG and AA by profens in vitro
Format: biochemical
Set-up: made in house; host or cells: insect cells
Details: read-out: Maximum inhibition of 2-AG oxygenation; achiral profens; at 10 μM inhibitor; 2-AG 5 μM
Metric Name: inhibition at 10 µM (%)
I only need the number, in %, no unit after it.

input: Which inhibition at 10 µM reading was recorded for the compound O=C(O)C1(c2ccc(-c3ccccc3)c(F)c2)CC1 ?
output: 87

input: // lookup inhibition at 10 µM for O=C(c1ccccc1)c1cccc(C2(C(=O)O)CC2)c1
output: 75

input: Entry under review: COc1ccc2cc(C(C)(C)C(=O)O)ccc2c1 . Reported inhibition at 10 µM?
output: 12

input: What does the record list as inhibition at 10 µM for O=C(O)Cc1cccc(Oc2ccccc2)c1 ?
output: 68

input: // inhibition at 10 µM lookup, key: CC(C)Cc1ccc(C(C)(C)C(=O)O)cc1
output: 5

input: Bench note: what inhibition at 10 µM did COc1ccc2cc(C3(C(=O)O)CC3)ccc2c1 show?
output: 77

input: Reported inhibition at 10 µM, compound CC(C)Cc1ccc(C2(C(=O)O)CC2)cc1 : ____
output: 45

input: Given the compound CC(C)(C(=O)O)c1cccc(Oc2ccccc2)c1 , what is its reported inhibition at 10 µM?
output: 65

====

Assay: In vivo mouse assay: plasma levels
Parameters: species or system C57BL/6 mice
Details: male, C57BL/6, mouse, plasma, intraperitoneal; 10 mg/kg i.p. at 0, 8, 24, 32, 48 and 56 hr; sixteen hr after the last injection
Metric Name: concentration at 72 h (µM)
Your answer should be a plain number; it is taken to be in µM.

input: Quick check: concentration at 72 h of C[C@@H](C(=O)O)c1ccc(-c2ccccc2)c(F)c1 [Compound 7a, (R)-flurbiprofen] ?
output: 20

====

Would you kindly list pIC50 for each of these molecules?
Target: purified murine COX-2 (Mus musculus)
Assay: Inhibition of mCOX-2 dependent oxygenation of 2-AG and AA by profens in vitro
Format: biochemical
Parameters: made in house; host or cells: insect cells
Settings: achiral profens; murine COX-2 40 nM, 3 min preincubation, 2-AG 5 μM, 37° C., 30 s; mean ± SD; read-out: 2-AG IC50
Quick note: pIC50 values are minus log10 of concentrations in mol/L.

input: What measured pIC50 goes with CC(C)(C(=O)O)c1cccc(Oc2ccccc2)c1 [Compound 4d] ?
output: 5.14

input: Query: pIC50; subject: O=C(c1ccccc1)c1cccc(C2(C(=O)O)CC2)c1 [Compound 5e]
output: 5.39

input: Given O=C(O)Cc1cccc(Oc2ccccc2)c1 [Compound 3d, 2-(3-phenoxyphenyl)acetic acid] , state its recorded pIC50.
output: 5.21

input: I would be grateful if you could share the reported pIC50 for COc1ccc2cc(CC(=O)O)ccc2c1 [Compound 3b, 2-(6-methoxynaphthalen-2-yl)acetic acid] .
output: 5.85

input: Given the entry COc1ccc2cc(C3(C(=O)O)CC3)ccc2c1 [Compound 5b] , report its measured pIC50.
output: 5.47

input: Would you mind telling me what pIC50 value was observed for O=C(O)C1(c2ccc(-c3ccccc3)c(F)c2)CC1 [Compound 5a] ?
output: 5.64

input: So what's the measured pIC50 for this one? CC(C)(C(=O)O)c1ccc(-c2ccccc2)c(F)c1 [Compound 4a]
output: 5.96

input: Endpoint output: pIC50 of O=C(O)C1(c2cccc(Oc3ccccc3)c2)CC1 [Compound 5d] . Value?
output: 5.30

input: Would you mind telling me what pIC50 value was observed for CC(C)Cc1ccc(CC(=O)O)cc1 [Compound 3c, 2-(4-isobutylphenyl)acetic acid] ?
output: 5.26

input: So what's the measured pIC50 for this one? O=C(O)Cc1cccc(C(=O)c2ccccc2)c1 [Compound 3e, Desmethylketoprofen]
output: 6.30

input: # input molecule: CC(C)(C(=O)O)c1cccc(C(=O)c2ccccc2)c1 [Compound 4e] ; wanted: its pIC50
output: 5.52
